target: T1, Human CD137 ECD (human); test: Biacore SPR, vs parent H183/L072
T1 construct: entry includes C-terminal His-tag and biotin acceptor peptide; also called human CD137 extracellular domain; 4-1BB
T1 sequence (chain, as listed by the source limits assumed): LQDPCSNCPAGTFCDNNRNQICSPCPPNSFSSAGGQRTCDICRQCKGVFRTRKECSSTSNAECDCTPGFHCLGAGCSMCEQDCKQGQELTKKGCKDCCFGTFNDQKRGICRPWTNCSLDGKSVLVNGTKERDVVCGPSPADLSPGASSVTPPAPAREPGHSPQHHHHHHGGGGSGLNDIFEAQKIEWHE
MEASURE_NAME: fold change of affinity (fold)
Give just the numeric value; fold need not be written.

Recorded results for 2 binders are shown here.
{"columns": ["BINDER", "fold change of affinity / fold"],
 "data": [
  ["H183/L072 VL V51S (antibody, name in Kabat numbering, V domains shown, Dual-Ig) VH: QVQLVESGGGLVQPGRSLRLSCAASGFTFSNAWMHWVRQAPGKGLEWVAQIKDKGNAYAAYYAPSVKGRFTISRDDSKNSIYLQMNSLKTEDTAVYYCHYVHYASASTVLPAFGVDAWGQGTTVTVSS VL: DIVMTQSPLSLPVTPGEPASISCQASQELVHMNRNTYLHWYQQKPGQAPRLLIYKSSNRFPGVPDRFSGSGSGTDFTLKISRVEAEDVGVYYCAQGTSVPFTFGQGTKLEIK", 0.6],
  ["H183/L072 VL N53T (antibody, name in Kabat numbering, V domains shown, Dual-Ig) VH: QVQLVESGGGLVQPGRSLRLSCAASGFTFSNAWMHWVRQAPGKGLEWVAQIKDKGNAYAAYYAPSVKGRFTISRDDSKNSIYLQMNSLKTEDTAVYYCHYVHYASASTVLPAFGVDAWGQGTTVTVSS VL: DIVMTQSPLSLPVTPGEPASISCQASQELVHMNRNTYLHWYQQKPGQAPRLLIYKVSTRFPGVPDRFSGSGSGTDFTLKISRVEAEDVGVYYCAQGTSVPFTFGQGTKLEIK", 0]
]}

Pending binder:
Consider H183/L072 VL M27eK (antibody, name in Kabat numbering, V domains shown, Dual-Ig) VH: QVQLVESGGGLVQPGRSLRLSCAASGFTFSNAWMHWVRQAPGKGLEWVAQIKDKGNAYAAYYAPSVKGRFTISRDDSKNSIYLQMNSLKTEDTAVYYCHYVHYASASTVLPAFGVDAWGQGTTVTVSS VL: DIVMTQSPLSLPVTPGEPASISCQASQELVHKNRNTYLHWYQQKPGQAPRLLIYKVSNRFPGVPDRFSGSGSGTDFTLKISRVEAEDVGVYYCAQGTSVPFTFGQGTKLEIK . Its measured fold change of affinity is 1.1
